From: PubChem BioAssay AID1251

ASSAY_NAME: antivirals against arbovirus infection, primary screen, cell-based, full library, 10K replicate subset (AID 1251)
MEASUREMENT_SETUP: arbovirus infection cell-based antiviral screen; at 10 µM; hits give high values
Out of some 200,000 compounds screened, about 720 (0.36%) were called active. The sample holds actives, similar compounds and a random draw of the others, so the mix is not that of the screen.
Listed compounds paired with reported inhibition

As a guide, the following entries are already answered.
COMPOUND: O=C(c1ccco1)N1CCN=C1SCc1cccc(Cl)c1
inhibition: 5.96% (inactive)
//
COMPOUND: COc1cccc(NC(=O)Nc2nnc(N3CCCCC3C)s2)c1 (centres undefined)
inhibition: 37.5% (active)
//
COMPOUND: O=C(Nc1nc(-c2ccncc2)cs1)C1COc2ccccc2O1 (centres undefined)
inhibition: -2.24% (inactive)

Let's switch to this compound now.
**Query** Find the recorded inhibition belonging to COCCn1c(SCC(=O)Nc2cc(Cl)ccc2OC)nc2c(c1=O)SC(C)C2 (centres undefined) and report it.
**Result** 31.7% (active)

====

Measured inhibition, listed per entry for reference.
ASSAY_NAME: antivirals against arbovirus infection, primary screen, cell-based, full library, 10K replicate subset (AID 1251)
MEASUREMENT_SETUP: arbovirus infection cell-based antiviral screen, at 10 µM, hits give high values
In all, about 200,000 compounds went through this assay and about 720 (0.36%) were called active. The list comes from a sample in which actives are over-represented; it also holds close analogues and randomly drawn compounds.
Provide only the numeric value, understood in %.

**Query** I am curious: what inhibition value has been reported for CC(=O)Oc1ccccc1C(=O)Nc1ncc([N+](=O)[O-])s1 ?
**Result** 31.3

**Query** For Cc1sc2nc(CC(N)=O)[nH]c(=O)c2c1-c1ccccc1 , what is its reported inhibition?
**Result** 3.01

**Query** Find the recorded inhibition belonging to Cc1ccc(-c2cc(C(F)(F)F)n3ncc(C(=O)N4CCCCC4c4cccnc4)c3n2)cc1 (centres undefined) and report it.
**Result** -9.25

====

ASSAY_NAME: antivirals against arbovirus infection, primary screen, cell-based, full library, 10K replicate subset (AID 1251)
MEASUREMENT_SETUP: arbovirus infection cell-based antiviral screen, at 10 µM, hits give high values
Out of some 200,000 compounds screened, about 720 (0.36%) were called active. For the sample, actives were picked, then their nearest neighbours and some compounds at random.
QUANTITY_KIND: inhibition

MOLECULE: COc1ccc(C(=O)OCC(=O)NC(=O)CCSc2ccccc2)cc1
inhibition: -0.73% (inactive)

MOLECULE: CC(NC(=O)C(=O)NN=C1CCC(C(C)(C)C)CC1)c1ccccc1 (stereo not given)
inhibition: 1.88% (inactive)

MOLECULE: O=C1N/C(=N\N=C\c2ccco2)SC1Cc1ccc(F)cc1 (stereo not given)
inhibition: 29.1% (inactive)

**Query** Could you tell me which inhibition is on file for O=C(Nc1ccc2c(c1)CCC2)c1cccc(S(=O)(=O)Nc2ccccc2Cl)c1 ?
**Result** -3.02% (inactive)

**Query** Any idea what inhibition was measured for CCOC(=O)c1csc(NC(=O)Nc2cccc(OC)c2)n1 ?
**Result** 6.16% (inactive)

**Query** Need inhibition of NC1=NC(=O)C(Cc2cccc(Cl)c2Cl)S1 (stereo not given) , thanks.
**Result** 9.95% (inactive)

**Query** Item CCCCOc1ccc(NC(=O)[C@@H]2CCCN2C(=O)C2CCN(S(=O)(=O)c3ccc(C)cc3)CC2)cc1 has what recorded inhibition?
**Result** -16.3% (inactive)

**Query** State the recorded inhibition for this entry: COc1ccc(C2C=C(c3ccc(Br)cc3)Nc3nc(NS(C)(=O)=O)nn32)cc1 (stereo not given)
**Result** 61.9% (active)

**Query** Fill in the blank: the reported inhibition of COc1ccc(C2=CC(c3cccc(OC)c3)n3nnnc3N2)cc1 (stereo not given) is ____.
**Result** 11.1% (inactive)

**Query** Field request: inhibition | item: N#Cc1ccccc1Sc1ccccc1C(=O)OCC(=O)NC1CCCCC1
**Result** 5.04% (inactive)

**Query** // returns reported inhibition for input O=C(CSc1ccccc1)Nc1cc(Cl)ccc1Oc1ccccc1
**Result** 31.3% (active)

**Query** What value of inhibition has been recorded for this entry: Cc1ccccc1NC(=S)N(CCCN1CCOCC1)Cc1cccs1
**Result** 7.45% (inactive)

**Query** inhibition lookup needed for COc1cccc(-n2c(SCC(=O)c3c[nH]c4ccccc34)nc3ccccc3c2=O)c1 , thanks.
**Result** 5.13% (inactive)

**Query** I am curious: what inhibition value has been reported for O=C(C1=C[C@H](C2CC2)C[C@H](OCc2ccc(CO)cc2)O1)N1CCN(Cc2ccccc2)CC1 ?
**Result** 4.26% (inactive)

**Query** May I ask what inhibition has been recorded for COc1ccccc1N1CCN(C(=O)c2ccc(Cl)c(S(=O)(=O)N3CCCC3)c2)CC1 ?
**Result** 4.9% (inactive)

**Query** Return reported inhibition; argument: COC(=O)C1=C(NC(=O)C(C)(C)C)CCS1
**Result** 2.37% (inactive)
